Values were extracted from ChEMBL document CHEMBL5523766.

Molecular target: ATR/ATRIP (Homo sapiens, UniProt Q13535)
Sequence (Q13535 whole entry): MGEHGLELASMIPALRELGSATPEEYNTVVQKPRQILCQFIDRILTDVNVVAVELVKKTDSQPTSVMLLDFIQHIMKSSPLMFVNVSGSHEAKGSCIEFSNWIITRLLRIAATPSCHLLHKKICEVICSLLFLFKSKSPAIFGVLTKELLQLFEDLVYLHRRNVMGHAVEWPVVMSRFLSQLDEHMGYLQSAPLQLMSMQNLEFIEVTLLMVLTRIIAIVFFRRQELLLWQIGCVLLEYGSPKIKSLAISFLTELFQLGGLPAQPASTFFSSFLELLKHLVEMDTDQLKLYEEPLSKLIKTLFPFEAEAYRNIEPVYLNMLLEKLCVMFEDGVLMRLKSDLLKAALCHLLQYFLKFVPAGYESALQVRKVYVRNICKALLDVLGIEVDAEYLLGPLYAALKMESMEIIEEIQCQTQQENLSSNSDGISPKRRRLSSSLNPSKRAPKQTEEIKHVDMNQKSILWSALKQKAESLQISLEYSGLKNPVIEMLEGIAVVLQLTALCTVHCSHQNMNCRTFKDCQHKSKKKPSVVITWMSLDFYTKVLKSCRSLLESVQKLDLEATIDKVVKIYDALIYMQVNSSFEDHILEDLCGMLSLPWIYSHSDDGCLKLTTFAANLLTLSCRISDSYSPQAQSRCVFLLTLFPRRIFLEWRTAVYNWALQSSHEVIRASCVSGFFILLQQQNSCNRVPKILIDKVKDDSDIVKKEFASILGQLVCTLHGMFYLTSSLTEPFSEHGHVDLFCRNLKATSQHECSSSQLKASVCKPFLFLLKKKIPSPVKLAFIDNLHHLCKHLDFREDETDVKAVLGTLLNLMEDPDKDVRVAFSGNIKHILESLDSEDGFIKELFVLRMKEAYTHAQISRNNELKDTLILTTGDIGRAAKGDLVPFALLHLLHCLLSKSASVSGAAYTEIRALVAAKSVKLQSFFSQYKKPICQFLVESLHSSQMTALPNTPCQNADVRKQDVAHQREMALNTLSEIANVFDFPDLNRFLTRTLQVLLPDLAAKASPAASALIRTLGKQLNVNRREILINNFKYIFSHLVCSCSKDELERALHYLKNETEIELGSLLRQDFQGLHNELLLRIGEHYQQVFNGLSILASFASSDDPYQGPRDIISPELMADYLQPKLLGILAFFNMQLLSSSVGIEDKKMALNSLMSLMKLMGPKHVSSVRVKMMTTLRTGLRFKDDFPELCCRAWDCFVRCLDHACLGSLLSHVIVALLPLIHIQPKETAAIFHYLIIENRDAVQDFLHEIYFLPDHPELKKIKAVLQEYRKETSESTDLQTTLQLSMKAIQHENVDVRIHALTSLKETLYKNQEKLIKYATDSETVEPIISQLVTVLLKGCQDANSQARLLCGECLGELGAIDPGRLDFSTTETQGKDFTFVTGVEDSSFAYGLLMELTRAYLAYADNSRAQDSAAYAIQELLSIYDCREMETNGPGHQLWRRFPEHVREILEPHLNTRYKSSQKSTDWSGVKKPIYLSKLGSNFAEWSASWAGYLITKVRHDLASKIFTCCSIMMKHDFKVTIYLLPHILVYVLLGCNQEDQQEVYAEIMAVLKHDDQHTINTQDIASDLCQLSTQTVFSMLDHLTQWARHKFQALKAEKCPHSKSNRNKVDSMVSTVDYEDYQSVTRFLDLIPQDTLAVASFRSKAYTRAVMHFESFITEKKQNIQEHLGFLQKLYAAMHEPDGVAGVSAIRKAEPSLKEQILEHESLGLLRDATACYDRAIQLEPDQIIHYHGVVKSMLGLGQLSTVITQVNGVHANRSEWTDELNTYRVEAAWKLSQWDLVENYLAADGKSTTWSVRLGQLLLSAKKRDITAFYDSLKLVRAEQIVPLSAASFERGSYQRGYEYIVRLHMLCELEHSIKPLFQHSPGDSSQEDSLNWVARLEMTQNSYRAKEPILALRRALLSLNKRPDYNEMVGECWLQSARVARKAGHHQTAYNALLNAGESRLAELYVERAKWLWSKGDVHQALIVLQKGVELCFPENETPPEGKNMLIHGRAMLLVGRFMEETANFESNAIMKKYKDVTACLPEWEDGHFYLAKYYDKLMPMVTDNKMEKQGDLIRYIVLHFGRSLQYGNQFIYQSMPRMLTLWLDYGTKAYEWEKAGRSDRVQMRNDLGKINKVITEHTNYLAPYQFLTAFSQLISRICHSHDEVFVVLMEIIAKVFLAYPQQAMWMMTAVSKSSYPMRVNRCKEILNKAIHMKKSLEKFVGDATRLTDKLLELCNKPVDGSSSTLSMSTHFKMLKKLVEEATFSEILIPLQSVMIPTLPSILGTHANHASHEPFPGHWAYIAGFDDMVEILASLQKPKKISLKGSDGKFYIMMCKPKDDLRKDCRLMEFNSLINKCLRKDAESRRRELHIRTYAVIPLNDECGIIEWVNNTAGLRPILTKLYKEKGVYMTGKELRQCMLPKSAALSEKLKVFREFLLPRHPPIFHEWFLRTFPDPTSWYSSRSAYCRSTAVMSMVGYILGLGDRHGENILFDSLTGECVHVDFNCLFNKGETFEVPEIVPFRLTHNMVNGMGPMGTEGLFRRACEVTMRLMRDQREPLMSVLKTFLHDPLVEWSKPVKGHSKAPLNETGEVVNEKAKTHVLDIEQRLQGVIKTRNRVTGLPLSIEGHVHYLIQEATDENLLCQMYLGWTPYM
Sequence (Q8WXE1 whole entry, further chain): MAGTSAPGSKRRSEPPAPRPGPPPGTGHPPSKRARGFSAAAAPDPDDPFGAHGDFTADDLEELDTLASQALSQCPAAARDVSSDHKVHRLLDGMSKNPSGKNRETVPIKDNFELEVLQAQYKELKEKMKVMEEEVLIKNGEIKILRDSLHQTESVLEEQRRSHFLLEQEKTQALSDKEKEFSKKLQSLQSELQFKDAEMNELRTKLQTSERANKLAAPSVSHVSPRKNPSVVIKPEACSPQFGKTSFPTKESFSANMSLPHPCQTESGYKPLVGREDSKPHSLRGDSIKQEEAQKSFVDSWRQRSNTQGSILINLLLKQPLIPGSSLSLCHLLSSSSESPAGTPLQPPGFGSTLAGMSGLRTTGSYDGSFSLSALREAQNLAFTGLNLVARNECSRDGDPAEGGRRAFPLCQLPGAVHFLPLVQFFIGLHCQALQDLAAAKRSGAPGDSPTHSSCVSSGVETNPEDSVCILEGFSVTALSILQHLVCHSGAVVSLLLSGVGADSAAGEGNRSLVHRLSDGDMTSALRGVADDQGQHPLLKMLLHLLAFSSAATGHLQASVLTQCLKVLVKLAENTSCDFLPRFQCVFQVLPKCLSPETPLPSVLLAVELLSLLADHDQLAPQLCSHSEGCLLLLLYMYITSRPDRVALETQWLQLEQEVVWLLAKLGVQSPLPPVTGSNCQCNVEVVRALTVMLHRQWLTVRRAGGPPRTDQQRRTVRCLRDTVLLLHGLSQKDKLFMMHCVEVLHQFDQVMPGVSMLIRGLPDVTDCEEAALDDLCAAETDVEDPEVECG
Test: Inhibition of ATR/ATRIP (unknown origin) using 5-FAM-AK-17 as substrate preincubated with compound for 10 mins followed by ATP addition and measured after 240 mins by mobility shift assay
Format: protein-complex assay
I'd appreciate it if you marked entries 1 when IC50 is lower than 30 nM and 0 when it is not.

>>> grouplabel("C[C@@H]1COCCN1c1cc(N2CCCS2(=O)=O)nc(-c2cccc3[nH]ccc23)n1")
0
>>> grouplabel("COc1cc(-c2nc(N3CCOC[C@H]3C)c3ccn(S(C)(=O)=O)c3n2)c2cc[nH]c2c1")
1
>>> grouplabel("Cc1ccc(S(=O)(=O)n2ccc3c(N4CCOC[C@H]4C)nc(-c4cccc5[nH]ccc45)nc32)cc1")
0
>>> grouplabel("C[C@@H]1COCCN1c1cc(C2CCCCS2(=O)=O)nc(-c2cccc3[nH]ccc23)n1 (some centres undefined)")
1
>>> grouplabel("C[C@@H]1COCCN1c1nc(-c2cccc3sccc23)nc2c1ccn2S(C)(=O)=O")
1
>>> grouplabel("C[C@@H]1COCCN1c1nc(-c2cccc3[nH]ccc23)nc2c1cnn2S(C)(=O)=O")
1
>>> grouplabel("C[C@@H]1COCCN1c1nc(-c2cc(Cl)cc3[nH]ccc23)nc2c1ccn2S(C)(=O)=O")
1
>>> grouplabel("C[C@@H]1COCCN1c1nc(-c2cccc3[nH]ccc23)nc2c1ccn2S(=O)(=O)N(C)C")
1
>>> grouplabel("C[C@@H]1COCCN1c1cc(C2(S(=O)(=O)N(C)C)CC2)nc(-c2cccc3[nH]ccc23)n1")
0
